biological target: Glucocorticoid receptor (Homo sapiens); assay: Agonist activity at glucocorticoid receptor (unknown origin)
Sequence (P04150 whole entry): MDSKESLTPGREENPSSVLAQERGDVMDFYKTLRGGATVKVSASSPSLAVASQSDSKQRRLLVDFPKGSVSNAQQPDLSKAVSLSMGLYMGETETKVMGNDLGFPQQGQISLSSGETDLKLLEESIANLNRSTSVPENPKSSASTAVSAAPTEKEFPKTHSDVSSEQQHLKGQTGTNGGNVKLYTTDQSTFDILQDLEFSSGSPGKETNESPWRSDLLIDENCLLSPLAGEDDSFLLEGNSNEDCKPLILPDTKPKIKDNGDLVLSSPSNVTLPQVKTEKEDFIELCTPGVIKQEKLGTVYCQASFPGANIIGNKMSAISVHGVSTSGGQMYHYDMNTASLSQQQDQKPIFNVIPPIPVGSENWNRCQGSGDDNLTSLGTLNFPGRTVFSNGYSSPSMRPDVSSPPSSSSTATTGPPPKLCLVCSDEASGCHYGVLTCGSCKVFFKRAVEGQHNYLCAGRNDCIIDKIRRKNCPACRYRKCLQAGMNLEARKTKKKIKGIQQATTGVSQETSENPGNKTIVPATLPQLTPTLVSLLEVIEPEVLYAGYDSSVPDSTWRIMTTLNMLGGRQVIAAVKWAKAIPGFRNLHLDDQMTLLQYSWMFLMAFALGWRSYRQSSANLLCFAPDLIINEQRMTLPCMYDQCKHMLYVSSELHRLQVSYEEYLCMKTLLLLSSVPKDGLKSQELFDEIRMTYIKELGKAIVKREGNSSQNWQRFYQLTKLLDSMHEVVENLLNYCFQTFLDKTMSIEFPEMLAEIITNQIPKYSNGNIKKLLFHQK
pEC50: −log10 of the molar value.
MEASUREMENT NAME: pEC50

Ask | Any idea what its pEC50 is? The molecule is C[C@@H]1CN(c2ccc(S(C)(=O)=O)cc2F)CCN1c1nccc(C(=O)NC2C3CC4CC2CC(O)(C4)C3)n1 (stereo partly specified)
Reply | < 5.30

###

test: In-vivo inhibition of 11beta-HSD1 activity in C57BL/6 mouse epididymal fat assessed as reduction in cortisone to-cortisol conversion at 10 mg/kg, po measured after 2 hrs by ELISA; assay type: functional; settings: C57BL/6, Epididymal fat pad
MEASUREMENT NAME: inhibition in vivo at 10 mg/kg (%)
Give bare numbers, in %.

Answered cases to consult:
[
  {
    "MOLECULE": "C[C@@H]1CN(c2cc(F)c(S(C)(=O)=O)cc2F)CCN1c1nccc(C(=O)NC2C3CC4CC2CC(O)(C4)C3)n1 (stereo partly drawn)",
    "UNIT INFO": "%",
    "RESULT NUMBER": 85
  },
  {
    "MOLECULE": "CNC(=O)c1ccc(N2CCN(c3cccc(C(=O)NC4C5CC6CC4CC(O)(C6)C5)n3)[C@H](C)C2)cn1 (stereo partly drawn)",
    "UNIT INFO": "%",
    "RESULT NUMBER": 85
  },
  {
    "MOLECULE": "CCS(=O)(=O)c1ccc(N2CCN(c3nccc(C(=O)NC4C5CC6CC4CC(O)(C6)C5)n3)[C@H](C)C2)c(F)c1 (stereo partly drawn)",
    "UNIT INFO": "%",
    "RESULT NUMBER": 82
  },
  {
    "MOLECULE": "C[C@@H]1CN(c2ccc(C(C)(C)O)cc2)CCN1c1nccc(C(=O)NC2C3CC4CC2CC(O)(C4)C3)n1 (stereo partly drawn)",
    "UNIT INFO": "%",
    "RESULT NUMBER": 46
  }
]

Each molecule below has a reported value. Please supply its inhibition in vivo at 10 mg/kg.
1. CNS(=O)(=O)c1ccc(N2CCN(c3cccc(C(=O)NC4C5CC6CC4CC(O)(C6)C5)n3)[C@H](C)C2)cc1 (stereo partly drawn)
2. CNC(=O)c1ccc(N2CCN(c3cccc(C(=O)NC4C5CC6CC4CC(O)(C6)C5)n3)[C@H](C)C2)cc1 (stereo partly drawn)
3. C[C@@H]1CN(c2ccc(C#N)cc2)CCN1c1nccc(C(=O)NC2C3CC4CC2CC(O)(C4)C3)n1 (stereo partly drawn)
4. C[C@@H]1CN(c2ccc(S(C)(=O)=O)cc2)CCN1c1nccc(C(=O)NC2C3CC4CC2CC(O)(C4)C3)n1 (stereo partly drawn)

Reply |
33
34
12
81
